Recorded inhibition for the following molecules
Molecular target: G/T mismatch-specific thymine DNA glycosylase (Homo sapiens);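 also: human TDG cleavage of quenched duplex DNA oligonucleotides coupled to APE1, strand release read as fluorescence at 594 nm, inhibition of TDG activity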
Conditions: Compound Concentration 10.0 uM, Hit No
Description: Inhibition of TDG by quantifying inhibition of TDG-mediated cleavage and dissociation of quenched duplex DNA oligonucleotides, measured as fluorescence at 594 nm. To generate a functional strand incision and increase turn-over this assay is coupled to APE1.
Give the number; % is assumed, so skip it.

# count of solved cases: 3
O=C(O)c1ccc(S(=O)(=O)N(Cc2ccc(OC(F)(F)F)cc2)c2ncc(C(F)(F)F)cc2Cl)cc1 35
N=C(N)NCCC[C@H](NC(=O)COCC(c1ccccc1)c1ccccc1)C(=O)O -4.14
CSc1ccc(C(=O)N[C@@H]2CCCC[C@@H]2NC(=O)CNC(=O)c2cc(C(F)(F)F)ccc2NC(=O)NC(C)C)cc1 20.7

Data request, read-out inhibition, for Cc1c(C(=O)Nc2ccc(N3C[C@@H](C)O[C@@H](C)C3)nc2)cccc1-c1ccc(OC(F)(F)F)cc1 -4.8

Now consider O=C1NCCc2c(OCCCCN3CCCCC3)cccc21 and answer again. -4.06

Origin of measurements: ChEMBL document CHEMBL5665443
